The values you see were collected from ChEMBL document CHEMBL3988442.

Measured Percent Effect accompanies every entry in the list below.
System: Wolbachia pipientis
ASSAY PROCEDURE: Anti-Wolbachia Cell-Based Screen
Assay type: functional
Design: scale not given: in the data most compounds retested in dose-response had high values
EXPERIMENTAL SETUP: 5 µM
Among all 48,000 compounds or so, about 13,000 (27%) showed an effect of 50% or more. The list shows a part of the results.

- COMPOUND: "Cc1csc(CN(C)S(=O)(=O)c2ccc(C)c(N(C)C)c2)n1"
  UNIT SYMBOL: "%"
  Percent Effect: 11.95
- COMPOUND: "CC(C)N1CC2(CCC1=O)CCN(C(=O)c1cccc(F)c1F)CC2"
  UNIT SYMBOL: "%"
  Percent Effect: -11.17
- COMPOUND: "Cc1ncc(C)c(N2CCCC(CO)(Cc3cccc(Cl)c3)C2)n1 (stereo unspecified)"
  UNIT SYMBOL: "%"
  Percent Effect: -4.145
- COMPOUND: "Cc1nc(N2CCCCC2)ncc1-c1cc(=O)[nH]c(N2CCCC2)n1"
  UNIT SYMBOL: "%"
  Percent Effect: -11.82
- COMPOUND: "Cn1[nH]c(C2CCC2)c(-c2ccc3c(c2)OCO3)c1=N"
  UNIT SYMBOL: "%"
  Percent Effect: 9.847
- COMPOUND: "COC(=O)C1CCCN1C(=O)c1ccc(Cl)cc1F (stereo unspecified)"
  UNIT SYMBOL: "%"
  Percent Effect: 16.38
- COMPOUND: "O=C1NCCCC12CCN(c1nc3c(c(C(F)(F)F)n1)CCCC3)C2 (stereo unspecified)"
  UNIT SYMBOL: "%"
  Percent Effect: -1.844
- COMPOUND: "CN(CCC(F)(F)F)C(=O)C1CCCN1C(=O)OC(C)(C)C (stereo unspecified)"
  UNIT SYMBOL: "%"
  Percent Effect: 12.15
- COMPOUND: "O=c1[nH]c(N2CCCCC2)nc2nccc(-c3ccc4c(c3)OCO4)c12"
  UNIT SYMBOL: "%"
  Percent Effect: 81.44
- COMPOUND: "CCN1C(=O)CC(c2ccccc2)C12CCN(c1ncc(C)cn1)CC2 (stereo unspecified)"
  UNIT SYMBOL: "%"
  Percent Effect: -13.83
- COMPOUND: "CC(NCc1ccc(OCC(N)=O)cc1)c1ccc(Cl)cc1Cl.Cl (stereo unspecified)"
  UNIT SYMBOL: "%"
  Percent Effect: -2.997

====

// reported Percent Effect per item
Test system: Wolbachia pipientis
ASSAY PROCEDURE: Anti-Wolbachia Cell-Based Screen
Format: functional
Parameters: scale not given: in the data most compounds retested in dose-response had high values
EXPERIMENTAL SETUP: 5 µM
About 13,000 (27%) of roughly 48,000 compounds showed an effect of 50% or more. This is one part of the list.
MEASUREMENT NAME: Percent Effect (%)

- COMPOUND: "CCC(CC)c1cc(CNC(=O)N2CCN(CC)CC2)on1"
  MEASURED: 1.8
- COMPOUND: "COC[C@@H]1CC[C@H]2[C@H](CCN2S(=O)(=O)Cc2ccccc2)O1"
  MEASURED: 24.17
- COMPOUND: "CCN(CC)CCn1cc(NC(=O)c2ccccc2OC)cn1"
  MEASURED: 7.312
- COMPOUND: "CCC(C)NC(=O)c1nn(C)c(NC(=O)c2ccccc2OC)c1F (configuration not stated)"
  MEASURED: 131.5
- COMPOUND: "O=C(c1[nH]nc(C2CC2)c1Cl)N1CCCC1"
  MEASURED: -9.749
- COMPOUND: "COCCN1CCCC(O)(CN2CCN(c3ccncc3C)CC2)C1=O (configuration not stated)"
  MEASURED: -3.963
- COMPOUND: "Cc1n[nH]cc1CNCc1cccc(OCC(F)(F)F)c1.Cl"
  MEASURED: -11.93
- COMPOUND: "CCN1CCCC(O)(CNCc2ccncc2)C1 (configuration not stated)"
  MEASURED: 6.912
- COMPOUND: "COc1ccccc1C(=O)Nc1c(F)c(C(=O)NCCC(C)C)nn1C"
  MEASURED: 138.9
- COMPOUND: "Cc1nc(CNCc2cccc(OC34CCCN(CC3)C4)c2)n[nH]1 (configuration not stated)"
  MEASURED: 113.3
- COMPOUND: "COc1ccnc(N(C)Cc2csc(C)n2)n1"
  MEASURED: -11.41
- COMPOUND: "CC(C)Oc1ccccc1C(=O)NCCc1nncn1C"
  MEASURED: -7.55
